Data origin, for the record: the Immune Epitope Database (IEDB)

target: HLA-C*03:03; assay: IEDB peptide-MHC binding, purified MHC/direct/fluorescence; filed as Kd, often an IC50 or EC50 that approximates it; bounds were set here for any values at or beyond the usual limits of such assays; conditions: source organism: Escherichia coli O139:H28 str. E24377A
readoutKind: Kd (nM)
Note: unit nM is implicit; provide only the numeric part.

IN: Recall and state the measured Kd for "YVVWLMFSL" .
OUT: 2190

###

biological target: HLA-A*30:01; assay: IEDB peptide-MHC binding, purified MHC/competitive/fluorescence; filed as Kd, often an IC50 or EC50 that approximates it; bounds were set here for any values at or beyond the usual limits of such assays; details: source organism: Giardia lamblia ATCC 50803
readoutKind: Kd

IN: Complete the entry with Kd for "LPVFATIGL"
OUT: ≥ 20 µM
